src = patent US20120028995A1

Test system: T lymphocytes (T cells)
assay details: Suppression of DNA synthesis of PHA-stimulated T lymphocytes
Format: cell-based
test conditions: PHA-stimulated human T cells, 48 hours, tritium thymidine incorporation; read-out: Supp. DNA Synt. T-cell IC50
metric name: IC50 (µM)

molecule: CC(C)(CNC(=O)CC(Cc1cc(F)ccc1F)NC(=O)OC(C)(C)C)CNC(=O)C(O)C(COCc1ccccc1)NC(=O)OC(C)(C)C (stereo not drawn) [Compound C19.004]
unit tag: µM
recorded value: 9.7
--
molecule: CC(C)(CNC(=O)CC(Cc1cc(F)ccc1F)NC(=O)OC(C)(C)C)CNC(=O)C(O)C(COCc1ccccc1)NC(=O)OC(C)(C)C (stereo not drawn) [Compound C19.025]
unit tag: µM
recorded value: 12.3
--
molecule: CC(C)(CNC(=O)CC(Cc1cc(F)ccc1F)NC(=O)OC(C)(C)C)CNC(=O)C(O)C(COCc1ccccc1)NC(=O)OC(C)(C)C (stereo not drawn) [Compound C19.024]
unit tag: µM
recorded value: 11.4

----------
Below: a set of entries, each annotated with reported pIC50.
measured on: cytosolic aminopeptidase (cAAP) purified from Jurkat cells (Homo sapiens, UniProt P55786)
Construct: The cytosolic aminopeptidase (cAAP) was purified from Jurkat cells; endogenous in cells
Sequence (P55786 whole entry): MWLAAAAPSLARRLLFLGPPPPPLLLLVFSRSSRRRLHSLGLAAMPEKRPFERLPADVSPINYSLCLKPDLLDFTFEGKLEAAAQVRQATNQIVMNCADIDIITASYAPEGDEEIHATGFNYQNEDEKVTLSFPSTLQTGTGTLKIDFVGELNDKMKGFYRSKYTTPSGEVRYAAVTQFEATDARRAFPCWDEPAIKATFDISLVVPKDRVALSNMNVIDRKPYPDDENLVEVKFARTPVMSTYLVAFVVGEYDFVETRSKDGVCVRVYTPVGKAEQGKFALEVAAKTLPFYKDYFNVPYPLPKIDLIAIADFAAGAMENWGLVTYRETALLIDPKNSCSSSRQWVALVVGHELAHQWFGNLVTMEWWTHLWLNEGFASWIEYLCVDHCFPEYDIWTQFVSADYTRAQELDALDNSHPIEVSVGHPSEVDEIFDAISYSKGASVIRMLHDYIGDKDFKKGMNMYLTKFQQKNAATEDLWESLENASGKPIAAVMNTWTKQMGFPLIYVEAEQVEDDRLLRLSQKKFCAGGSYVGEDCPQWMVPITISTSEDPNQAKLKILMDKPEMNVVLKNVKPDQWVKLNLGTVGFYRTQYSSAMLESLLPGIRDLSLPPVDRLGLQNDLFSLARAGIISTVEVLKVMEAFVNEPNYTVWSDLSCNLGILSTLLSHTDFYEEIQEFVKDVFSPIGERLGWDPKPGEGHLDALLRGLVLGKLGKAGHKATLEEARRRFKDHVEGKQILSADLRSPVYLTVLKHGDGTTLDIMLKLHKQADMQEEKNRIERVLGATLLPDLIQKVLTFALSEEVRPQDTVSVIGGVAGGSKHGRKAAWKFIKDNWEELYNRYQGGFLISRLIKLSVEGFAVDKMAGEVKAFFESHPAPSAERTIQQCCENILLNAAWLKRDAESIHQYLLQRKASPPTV
assay details: Inhibition of enzymatic activity of cytosolic aminopeptidase (cAAP)
test conditions: highest test item concentration 25 μM, read-out: meas. IC50 (cAAP)
pIC50: −log10 of the molar value.
metric name: pIC50

molecule: NC(CCCCNC(=O)c1cccc(NC(=O)C(O)C(N)Cc2ccccc2)c1)C(=O)N1CCSC1 (stereo not shown)
metric name: pIC50
recorded value: 6.89
//
molecule: NC(CNS(=O)(=O)CCCNC(=O)C(O)C(N)Cc1ccccc1)Cc1cc(F)ccc1F (stereo not shown)
metric name: pIC50
recorded value: 7.05
//
molecule: COc1ccc(COCC(NC(=O)OC(C)(C)C)C(O)C(=O)NCC(C)(C)CNC(=O)CC(Cc2cc(F)ccc2F)NC(=O)OC(C)(C)C)cc1 (stereo not shown)
metric name: pIC50
recorded value: 4.99
//
molecule: NC(CCCCNS(=O)(=O)c1cccc(NC(=O)C(O)C(N)Cc2ccccc2)c1)C(=O)N1CCSC1 (stereo not shown)
metric name: pIC50
recorded value: 6.92

----------
measured on: cytosolic aminopeptidase (cAAP) purified from Jurkat cells (Homo sapiens)
Construct: The cytosolic aminopeptidase (cAAP) was purified from Jurkat cells; endogenous in cells; host or cells: Jurkat cells (enzyme purified from them)
assay details: Inhibition of enzymatic activity of cytosolic aminopeptidase (cAAP)
Type: biochemical
test conditions: highest test item concentration 25 μM
metric name: meas. IC50 (cAAP)

compound: CCCCCCCC(=O)OC(C(=O)NCC(C)(C)CNC(=O)CC(Cc1cc(F)ccc1F)NC(=O)OC(C)(C)C)C(COCc1ccc(OC)cc1)NC(=O)OC(C)(C)C (stereo not drawn) [Compound C19.007]
recorded value: no in- hibition
--
compound: CC(C)(CNC(=O)CC(Cc1cc(F)ccc1F)NC(=O)OC(C)(C)C)CNC(=O)C(O)C(COCc1ccccc1)NC(=O)OC(C)(C)C (stereo not drawn) [Compound C19.023]
recorded value: no in- hibition
--
compound: CC(C)[C@@H]1CC[C@@H](C)CC1OC(=O)CC(Cc1cc(F)ccc1F)NC(=O)OC(C)(C)C (stereo partly drawn) [Compound C-122]
recorded value: no in- hibition

----------
measured on: aminopeptidase N (APN), purified recombinant human enzyme (Homo sapiens)
Construct: made in house; host or cells: ECV cells (transfected)
Sequence (P15144 whole entry): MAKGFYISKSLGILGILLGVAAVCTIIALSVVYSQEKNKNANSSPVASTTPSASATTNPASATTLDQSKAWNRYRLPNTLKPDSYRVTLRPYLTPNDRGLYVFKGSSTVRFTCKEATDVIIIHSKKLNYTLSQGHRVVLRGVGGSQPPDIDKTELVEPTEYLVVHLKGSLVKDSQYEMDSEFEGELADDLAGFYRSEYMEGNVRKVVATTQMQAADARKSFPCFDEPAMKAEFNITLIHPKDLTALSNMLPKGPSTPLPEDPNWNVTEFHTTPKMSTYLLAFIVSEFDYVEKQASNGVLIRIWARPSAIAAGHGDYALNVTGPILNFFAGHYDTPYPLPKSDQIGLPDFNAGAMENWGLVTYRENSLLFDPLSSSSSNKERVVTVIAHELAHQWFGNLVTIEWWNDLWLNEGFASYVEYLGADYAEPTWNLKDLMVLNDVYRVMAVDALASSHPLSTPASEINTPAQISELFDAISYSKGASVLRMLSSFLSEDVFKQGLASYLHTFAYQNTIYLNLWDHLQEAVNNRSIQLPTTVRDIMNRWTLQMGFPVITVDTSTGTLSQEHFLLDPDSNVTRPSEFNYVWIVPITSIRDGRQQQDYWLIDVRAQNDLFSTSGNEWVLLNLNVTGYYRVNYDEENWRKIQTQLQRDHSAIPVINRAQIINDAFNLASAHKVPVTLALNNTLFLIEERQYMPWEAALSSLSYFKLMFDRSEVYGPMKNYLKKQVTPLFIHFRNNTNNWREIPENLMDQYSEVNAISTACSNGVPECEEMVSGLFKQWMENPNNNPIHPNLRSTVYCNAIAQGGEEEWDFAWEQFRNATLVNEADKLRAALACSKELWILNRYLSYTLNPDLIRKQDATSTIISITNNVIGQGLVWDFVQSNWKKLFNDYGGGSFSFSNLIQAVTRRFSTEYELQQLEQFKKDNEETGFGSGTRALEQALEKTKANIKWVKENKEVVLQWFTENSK
assay details: Inhibition of enzymatic activity of aminopeptidase N (fluorogenic substrate hydrolysis)
Type: biochemical
test conditions: highest test item concentration 25 μM

compound: COc1ccc(COCC(NC(=O)C(C)(C)C)C(OCc2ccc(OC)cc2)C(=O)NCC(C)(C)CNC(=O)CC(Cc2cc(F)ccc2F)NC(=O)C(C)(C)C)cc1 (stereo not drawn) [Compound C19.018]
measured on: aminopeptidase N (APN), purified recombinant human enzyme (Homo sapiens)
meas. IC50 (APN): no in- hibition
//
compound: CC(C)(C)OC(=O)NC(CNS(=O)(=O)CCCNC(=O)C(O)C(Cc1ccccc1)NC(=O)OC(C)(C)C)Cc1cc(F)ccc1F (stereo not drawn) [Compound C26.002]
measured on: aminopeptidase N (APN), purified recombinant human enzyme (Homo sapiens)
meas. IC50 (APN): no in- hibition
//
compound: CC(C)(CNC(=O)CC(Cc1cc(F)ccc1F)Nc1ccc([N+](=O)[O-])c2nonc12)CNC(=O)C(O)C(COCc1ccccc1)Nc1ccc([N+](=O)[O-])c2nonc12 (stereo not drawn) [Compound C19.030]
measured on: aminopeptidase N (APN), purified recombinant human enzyme (Homo sapiens)
meas. IC50 (APN): no in- hibition
//
compound: CCCCCCCCCCCCCC(=O)NC(CC(=O)NCC(C)(C)CNC(=O)C(O)C(COCc1ccccc1)NC(=O)CCCCCCCCCCCCC)Cc1cc(F)ccc1F (stereo not drawn) [Compound C19.011]
measured on: aminopeptidase N (APN), purified recombinant human enzyme (Homo sapiens)
meas. IC50 (APN): no in- hibition
//
compound: CCOC(=O)C(O[Si](C)(C)C(C)(C)C)C(Cc1ccc(-c2cccnc2)cc1)NC(=O)OCc1ccccc1 (stereo not drawn) [Compound C26.006]
measured on: aminopeptidase N (APN), purified recombinant human enzyme (Homo sapiens)
meas. IC50 (APN): no in- hibition
//
compound: CC(C)(CNC(=O)CC(Cc1cc(F)ccc1F)NC(=O)OC(C)(C)C)CNC(=O)C(O)C(COCc1ccccc1)NC(=O)OC(C)(C)C (stereo not drawn) [Compound C19.024]
measured on: aminopeptidase N (APN), purified recombinant human enzyme (Homo sapiens)
meas. IC50 (APN): no in- hibition

----------
measured on: cytosolic aminopeptidase (cAAP) purified from Jurkat cells (Homo sapiens)
Construct: The cytosolic aminopeptidase (cAAP) was purified from Jurkat cells; endogenous in cells
assay details: Inhibition of enzymatic activity of cytosolic aminopeptidase (cAAP)
test conditions: highest test item concentration 25 μM, read-out: meas. IC50 (cAAP)
Output satisfied for records whose IC50 is lower than 1000 nM, not satisfied for records at or above 1000 nM.

compound: NC(CNC(=O)c1cccc(NC(=O)C(O)C(N)COCc2ccccc2)c1)Cc1cc(F)ccc1F (centres unmarked)
classification: satisfied
//
compound: NC(CCCCNC(=O)C(O)C(N)Cc1ccccc1)C(=O)N1CCSC1 (centres unmarked)
classification: satisfied
//
compound: CCCC(=O)OC(C(=O)Nc1cccc(C(=O)NCC(Cc2cc(F)ccc2F)NC(=O)OC(C)(C)C)c1)C(COCc1ccccc1)NC(=O)OC(C)(C)C (centres unmarked)
classification: not satisfied
//
compound: CC(C)NC(CC(=O)NCC(C)(C)CNC(=O)C(O)C(N)COCc1ccccc1)Cc1cc(F)ccc1F (centres unmarked)
classification: satisfied
//
compound: CC(=O)NC(Cc1ccccc1)C(O)C(=O)NCCCS(=O)(=O)NCC(N)Cc1cc(F)ccc1F (centres unmarked)
classification: satisfied
//
compound: CC(C)(CNC(=O)CC(N)Cc1cc(F)ccc1F)CNC(=O)C(O)C(N)CO (centres unmarked)
classification: satisfied
//
compound: CC(=O)SC(C(=O)NCCCCC(NC(=O)OC(C)(C)C)C(=O)N1CCSC1)C(Cc1ccccc1)NC(=O)OC(C)(C)C (centres unmarked)
classification: satisfied
//
compound: CC(C)(C)OC(=O)NC(CNC(=O)c1cccc(NC(=O)C(O)C(N)Cc2ccc(-c3cccnc3)cc2)c1)Cc1cc(F)ccc1F (centres unmarked)
classification: satisfied
//
compound: CCOC(=O)NC(CC(=O)NCC(C)(C)CNC(=O)C(O)C(COCc1ccccc1)NC(=O)OCC)Cc1cc(F)ccc1F (centres unmarked)
classification: not satisfied
//
compound: CC(C)(CNC(=O)CC(Cc1cc(F)ccc1F)NC(=O)OCc1ccccc1)CNC(=O)C(O)C(N)COCc1ccccc1 (centres unmarked)
classification: satisfied
//
compound: CCCCCC(=O)NC(CC(=O)NCC(C)(C)CNC(=O)C(O)C(COCc1ccccc1)NC(=O)CCCCC)Cc1cc(F)ccc1F (centres unmarked)
classification: satisfied
//
compound: CC(C)(CNC(=O)CC(Cc1cc(F)ccc1F)NC(=O)OCc1ccccc1)CNC(=O)C(O)C(COCc1ccccc1)NC(=O)OCc1ccccc1 (centres unmarked)
classification: not satisfied
//
compound: NC(CNC(=O)CCCNC(=O)C(O)C(N)Cc1ccccc1)Cc1cc(F)ccc1F (centres unmarked)
classification: satisfied
//
compound: CCCCCCCC(=O)NC(CC(=O)NCC(C)(C)CNC(=O)C(O)C(COCc1ccccc1)NC(=O)CCCCCCC)Cc1cc(F)ccc1F (centres unmarked)
classification: not satisfied
//
compound: NC(CCCCNC(=O)C(S)C(N)Cc1ccccc1)C(=O)N1CCSC1 (centres unmarked)
classification: not satisfied

----------
measured on: aminopeptidase N (APN), purified recombinant human enzyme (Homo sapiens)
assay details: Inhibition of enzymatic activity of aminopeptidase N (fluorogenic substrate hydrolysis)
test conditions: highest test item concentration 25 μM, read-out: meas. IC50 (APN)
pIC50: −log10 of the molar value.
Respond with Criterion met for pIC50 values of 7 and above, Criterion not met for values below.

compound: NC(CCCCNC(=O)C(O)C(N)Cc1ccccc1)C(=O)N1CCSC1 (stereo not shown) [Compound C21.001]
measured on: aminopeptidase N (APN), purified recombinant human enzyme (Homo sapiens)
classification: Criterion not met

compound: NC(CCCCNS(=O)(=O)c1cccc(NC(=O)C(O)C(N)Cc2ccccc2)c1)C(=O)N1CCSC1 (stereo not shown) [Compound C21.006]
measured on: aminopeptidase N (APN), purified recombinant human enzyme (Homo sapiens)
classification: Criterion not met

compound: CC(C)(CNC(=O)CC(Cc1cc(F)ccc1F)NC(=O)OCc1ccccc1)CNC(=O)C(O)C(N)COCc1ccccc1 (stereo not shown) [Compound C19.026]
measured on: aminopeptidase N (APN), purified recombinant human enzyme (Homo sapiens)
classification: Criterion not met

compound: CC(=O)NC(Cc1ccccc1)C(O)C(=O)NCCCS(=O)(=O)NCC(N)Cc1cc(F)ccc1F (stereo not shown) [Compound C26.003]
measured on: aminopeptidase N (APN), purified recombinant human enzyme (Homo sapiens)
classification: Criterion not met

compound: NC(CNC(=O)c1cccc(NC(=O)C(O)C(N)COCc2ccccc2)c1)Cc1cc(F)ccc1F (stereo not shown) [Compound C19.031]
measured on: aminopeptidase N (APN), purified recombinant human enzyme (Homo sapiens)
classification: Criterion met

compound: NC(CCCCNC(=O)c1cccc(NC(=O)C(O)C(N)Cc2ccccc2)c1)C(=O)N1CCSC1 (stereo not shown) [Compound C21.003]
measured on: aminopeptidase N (APN), purified recombinant human enzyme (Homo sapiens)
classification: Criterion not met
